- Species: Rattus norvegicus
- assay.overview: DrugMatrix - Regimen: Daily Repeat
- Assay type: toxicity, organism-based, Sprague-Dawley
- Parameters: regimen Daily Repeat, gender Male, age 6-8 weeks
- measurement.parameters: in vivo, ip, 0.5 mg/kg, […], tissue Blood, route intraperitoneal, dose level High, time 28 day, vehicle 100 % SALINE
readout.name: ABSOLUTE MONOCYTE (cells/µL)
Express the result in cells/µL but write the number alone.

Query block: I am curious: what ABSOLUTE MONOCYTE value has been reported for CISPLATIN ?
Result block: 180

---

- Species on record: Rattus norvegicus
- assay.overview: DrugMatrix - Regimen: Daily Repeat
- Assay type: toxicity, organism-based, Sprague-Dawley
- Parameters: regimen Daily Repeat, gender Male, age 6-8 weeks
- measurement.parameters: in vivo, po, 0 mg/kg, 72 h, tissue Plasma, route oral GAVAGE, dose level Control, time 3 day, vehicle 100 % WATER
The following molecules are listed with their measured ALBUMIN values.
Express the result in G/DL but write the number alone.

Consider the reported ALBUMIN for these molecules:
Nc1ccc(S(=O)(=O)Nc2ccnn2-c2ccccc2)cc1 = 4.02
COc1cccc(C2(O)CCCCC2CN(C)C)c1 (stereo not given) = 4.07
CN1CCN(C(=O)OC2c3nccnc3C(=O)N2c2ccc(Cl)cn2)CC1 (stereo not given) = 4.1
CC1COc2c(N3CCN(C)CC3)c(F)cc3c(=O)c(C(=O)O)cn1c23 (stereo not given) = 3.95

Query block: I am curious: what ALBUMIN value has been reported for Cc1cc(NS(=O)(=O)c2ccc(N)cc2)no1 ?
Result block: 4.05

Query block: Also, Clc1ccc(C(c2ccccc2Cl)C(Cl)Cl)cc1 (stereo not given) please.
Result block: 4.25

Query block: Also, Cn1cnc([N+](=O)[O-])c1Sc1ncnc2nc[nH]c12 please.
Result block: 4

Query block: Also, NC(=O)c1ncn([C@@H]2O[C@H](CO)[C@@H](O)[C@H]2O)n1 please.
Result block: 4.18

Query block: Also, CC(CCc1ccccc1)NCC(O)c1ccc(O)c(C(N)=O)c1 (stereo not given) please.
Result block: 4.18

Query block: Also, NCC1(CC(=O)O)CCCCC1 please.
Result block: 4.1

---

- Species on record: Rattus norvegicus
- assay.overview: DrugMatrix - Regimen: Daily Repeat
- Type: toxicity, organism-based, Sprague-Dawley
- Set-up: regimen Daily Repeat, gender Male, age 6-8 weeks
- measurement.parameters: in vivo, ip, 5 mg/kg, 120 h, tissue Blood, route intraperitoneal, dose level High, time 5 day, vehicle 100 % SALINE
readout.name: ABSOLUTE MONOCYTE (cells/µL)
Express the result in cells/µL but write the number alone.

Query block: I am curious: what ABSOLUTE MONOCYTE value has been reported for CARBOPLATIN ?
Result block: 120

---

- Species: Rattus norvegicus
- assay.overview: DrugMatrix - Regimen: Daily Repeat
- Type: toxicity, organism-based, Sprague-Dawley
- Parameters: regimen Daily Repeat, gender Male, age 6-8 weeks
- measurement.parameters: in vivo, ip, 8 mg/kg, […], tissue Blood, route intraperitoneal, dose level High, time 28 day, vehicle 100 % SALINE
readout.name: ABSOLUTE LYMPHOCYTE (cells/µL)
Express the result in cells/µL but write the number alone.

Query block: I am curious: what ABSOLUTE LYMPHOCYTE value has been reported for GOLD SODIUM THIOMALATE ?
Result block: 9610
